// %Inh lookup, one value per entry
system: TNNI3K; settings: concentration: 1 μM, replicates: in singlicate; n = 1;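 also: KINOMEscan kinase panel screen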
Report as a plain number; the unit % is understood.

Record excerpt, results attached:
[
  {
    "Compound": "Nc1ncnc2[nH]c(-c3ccccc3)nc12 [AH5015]",
    "%Inh, %": 11
  },
  {
    "Compound": "Cc1ccc(NC(=O)Nc2cccc(Cl)c2)cc1-c1ccc(C(=O)Nc2ccncc2)cc1 [GSK1398468]",
    "%Inh, %": 64
  },
  {
    "Compound": "Cl.O=C(Nc1cccc(-c2nn3ncccc3c2-c2ccnc(Nc3cccnc3)n2)c1)c1c(F)cccc1F [GSK312879]",
    "%Inh, %": 0
  }
]

%Inh recorded for this compound, Clc1cc(Cl)cc(Nc2ccnc(Nc3cc(Cl)cc(Cl)c3)n2)c1 [GSK175726] , is 6

Looking up O=C(Nc1n[nH]c2cc(-c3cccc(F)c3F)ccc12)C1CC1 [SB-733894] , I found its %Inh recorded as 0

// %Inh value for COC(=O)c1c(-c2ccccc2)c2cc(OC)ccc2c(=O)n1Cc1ccccc1 : 0

Short answer for Cc1nnc(-c2ccc3occ(-c4ccc(S(C)=O)cc4)c3c2)[nH]1 (stereo not shown) : %Inh was 15

The compound identified as Cc1ccc(C(=O)Nc2ccc(Nc3ccnc4cc(-c5ccccn5)ccc34)cc2O)cc1.Cl [GW440146] registered its %Inh at 0

Record summary for O=C1NC(=O)C(N2CCc3ccccc32)=C1c1ccccc1Cl [SB-373598] : reported %Inh = 4

The reported %Inh of the compound COc1ccc(CNC(=O)NC2CCN(c3ccnc(Nc4cc(OC)c(OC)c(OC)c4)n3)C2)cc1 (stereo not shown) [GSK1379748] was 10

* * *

system: SGK2; details: concentration: 1 μM, replicates: in singlicate; n = 1
A collection of compounds and their measured %Inh
// return numeric value only (unit: %, not printed)

Consider the following illustrative entries.
[
  {
    "Compound": "Cc1ccc(NC(=O)Nc2cc(C(C)(C)C)nn2-c2ccccc2)cc1",
    "Units of measure": "%",
    "%Inh": 8
  },
  {
    "Compound": "Cl.O=C(Nc1cccc(-c2nn3ncccc3c2-c2ccnc(Nc3cccnc3)n2)c1)c1c(F)cccc1F",
    "Units of measure": "%",
    "%Inh": 1
  }
]

For O=C(Nc1ccc2c(c1)OCO2)NC1CCN(c2ccnc(Nc3ccc(F)cc3)n2)C1 (stereo not shown) the compound record lists %Inh as 0

# compound Cl.c1ccc(-c2n[nH]cc2-c2ccnc(-c3ccc(CN4CCOCC4)cc3)c2)nc1 ; its %Inh = 0

In plain terms, COc1cccc(-c2cc(-c3c[nH]nc3-c3ccccn3)ccn2)c1 has a documented %Inh of 4

Record Nc1nc(-c2nccs2)c(-c2ccnc3ccccc23)s1 . Reported %Inh: 0

So, Fc1cc(Cl)ccc1Nc1ccnc2cc(-c3ccc(CN4CCCCC4)o3)ccc12 ? Its %Inh was 0

* * *

Reported %Inh is given for each of the following molecules.
system: FLT4; details: concentration: 1 μM, replicates: in singlicate; n = 1
Give just the numeric value; % need not be written.

[
  {
    "Cpd smiles": "Cc1ccccc1-n1cnc2c(N)ncnc21",
    "%Inh, %": 0
  },
  {
    "Cpd smiles": "COc1ccccc1-c1ccc2c(NC(=O)C3CC3)n[nH]c2n1",
    "%Inh, %": 0
  },
  {
    "Cpd smiles": "O=C(O)COc1ncnc2cc(-c3ccc4[nH]ncc4c3)sc12",
    "%Inh, %": 2
  },
  {
    "Cpd smiles": "Cc1cc(-c2ccc3c(c2)CC[C@@H](N[C@@H](C)c2ccccc2)C3)cnc1N.Cl",
    "%Inh, %": 22
  }
]

Documented %Inh of Cc1cccc(-c2nc(C)cc(Nc3ccncc3)n2)n1 : 13

Source of measurements: paper PMC5540273
